B1: glmS ribozyme (parent)
chain: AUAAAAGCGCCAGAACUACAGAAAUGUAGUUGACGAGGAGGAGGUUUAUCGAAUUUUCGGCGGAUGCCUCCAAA

Variants of: B1
Test: self-cleavage kobs at 2500 uM GlcN6P; higher = faster cleavage; RNA array
Applied conditions: with glucosamine-6-phosphate
Variants at the floor of the assay were thinned out.
Classify by measured self-cleavage kobs at 2500 uM GlcN6P: Criterion met if it is equal to or exceeds 0.0003 s⁻¹, Criterion not met if it is smaller.

Request: Assess whether reported self-cleavage kobs at 2500 uM GlcN6P for G35U G41U sits at 0.0003 s⁻¹ or higher.
Result: Criterion not met

Request: Kindly determine if self-cleavage kobs at 2500 uM GlcN6P recorded for C11A A14C C70U is above or exactly 0.0003 s⁻¹.
Result: Criterion not met

Request: Would you say G62C C67G shows self-cleavage kobs at 2500 uM GlcN6P at minimum 0.0003 s⁻¹?
Result: Criterion not met

Request: State whether the measured self-cleavage kobs at 2500 uM GlcN6P reaches 0.0003 s⁻¹, counting equality as reaching it, for C8U G13U
Result: Criterion not met

Request: Confirm if self-cleavage kobs at 2500 uM GlcN6P reported for the variant A39U C70U is 0.0003 s⁻¹ or above.
Result: Criterion met

Request: Given G37A C61U , state whether its self-cleavage kobs at 2500 uM GlcN6P is at least 0.0003 s⁻¹.
Result: Criterion not met

Request: Item A12G C71A with self-cleavage kobs at 2500 uM GlcN6P of 0.0003 s⁻¹ or above?
Result: Criterion not met

Request: Check if self-cleavage kobs at 2500 uM GlcN6P >= 0.0003 s⁻¹ (inclusive). Item: A6G C50G G51A
Result: Criterion not met

Request: Check if self-cleavage kobs at 2500 uM GlcN6P >= 0.0003 s⁻¹ (inclusive). Item: U31C U47C
Result: Criterion not met

Request: Could you verify whether the entry G37C C70U shows self-cleavage kobs at 2500 uM GlcN6P of no less than 0.0003 s⁻¹?
Result: Criterion not met

Further cases:
Request: Entry A6G G7C : is its self-cleavage kobs at 2500 uM GlcN6P no less than 0.0003 s⁻¹?
Result: Criterion not met

Request: Has A15C C70G a recorded self-cleavage kobs at 2500 uM GlcN6P greater than or equal to 0.0003 s⁻¹?
Result: Criterion not met

Request: self-cleavage kobs at 2500 uM GlcN6P >= 0.0003 s⁻¹ for A12C A42U ?
Result: Criterion not met

Request: # check: self-cleavage kobs at 2500 uM GlcN6P of A53G U55A G66U is greater than or equal to 0.0003 s⁻¹
Result: Criterion met

Request: Does self-cleavage kobs at 2500 uM GlcN6P meet or surpass 0.0003 s⁻¹ for A15U U45G ?
Result: Criterion met

Request: Determine whether this variant has self-cleavage kobs at 2500 uM GlcN6P no lower than 0.0003 s⁻¹: C8G A33G A52G A53G C68A U69G
Result: Criterion met

Request: Reported self-cleavage kobs at 2500 uM GlcN6P reaches at least 0.0003 s⁻¹ for U30G G43C ?
Result: Criterion not met

Request: Textbook exercise: given the entry U30G G32C A39G U45C A52U G63A , state whether its self-cleavage kobs at 2500 uM GlcN6P is greater than or equal to 0.0003 s⁻¹.
Result: Criterion not met

Request: Is reported self-cleavage kobs at 2500 uM GlcN6P greater than or equal to 0.0003 s⁻¹ here: A6G G51C
Result: Criterion not met

Request: Entry G41C U55A : is its self-cleavage kobs at 2500 uM GlcN6P no less than 0.0003 s⁻¹?
Result: Criterion not met

Request: Please tell me: is the variant A12U G13A at or over 0.0003 s⁻¹ in terms of self-cleavage kobs at 2500 uM GlcN6P?
Result: Criterion not met

Request: Could you please find out whether U47A A48C G51U has self-cleavage kobs at 2500 uM GlcN6P that meets 0.0003 s⁻¹ or exceeds it?
Result: Criterion not met

Request: Please check the record A14C C71A and state if its self-cleavage kobs at 2500 uM GlcN6P is at or above 0.0003 s⁻¹.
Result: Criterion met
